- experimental_target: T1, orthogonal hCD122 receptor (hoRb), hCD122 with H133D and Y134F (human, UniProt P14784 27-550); further: reference of the scale not given here
- T1 sequence: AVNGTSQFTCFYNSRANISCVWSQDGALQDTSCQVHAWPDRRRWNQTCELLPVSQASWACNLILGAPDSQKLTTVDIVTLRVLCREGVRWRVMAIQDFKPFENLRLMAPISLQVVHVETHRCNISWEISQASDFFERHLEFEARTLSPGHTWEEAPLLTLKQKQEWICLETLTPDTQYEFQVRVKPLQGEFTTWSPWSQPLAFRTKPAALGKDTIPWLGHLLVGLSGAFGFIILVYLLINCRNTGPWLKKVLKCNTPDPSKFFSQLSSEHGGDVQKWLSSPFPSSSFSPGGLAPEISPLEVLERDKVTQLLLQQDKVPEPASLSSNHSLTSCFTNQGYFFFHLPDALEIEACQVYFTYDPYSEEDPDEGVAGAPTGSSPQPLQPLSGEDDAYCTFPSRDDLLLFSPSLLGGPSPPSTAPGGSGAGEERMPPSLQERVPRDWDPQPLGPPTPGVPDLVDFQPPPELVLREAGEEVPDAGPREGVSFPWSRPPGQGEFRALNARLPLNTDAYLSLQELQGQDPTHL
- assay_summary: cell-based or functional assay
Consider the cut-off 2 fold. If the recorded Relative Proliferation Fold Change NKL 1:10 is strictly smaller, the label is condition met; if not, the label is condition not met.

binder	label_value
L18Y, SQVLKA (ligand) APTSSSTKKTQLQLSQLYVLLKAILNGINNYKNPKLTRMLTFKFYMPKKATELKHLQCLEEELKPLEEVLNLAQSKNFHLRPRDLISNINVIVLELKGSETTFMCEYADETATIVEFLNRWITFCQSIISTLT	condition not met
SQVLMA (ligand) APTSSSTKKTQLQLSQLLVLLMAILNGINNYKNPKLTRMLTFKFYMPKKATELKHLQCLEEELKPLEEVLNLAQSKNFHLRPRDLISNINVIVLELKGSETTFMCEYADETATIVEFLNRWITFCQSIISTLT	condition met

stdin: Is the reported Relative Proliferation Fold Change NKL 1:10 for ΔQ13, SQVLKA (ligand) APTSSSTKKTQLLSQLLVLLKAILNGINNYKNPKLTRMLTFKFYMPKKATELKHLQCLEEELKPLEEVLNLAQSKNFHLRPRDLISNINVIVLELKGSETTFMCEYADETATIVEFLNRWITFCQSIISTLT strictly below 2 fold?
stdout: condition met

stdin: Is the reported Relative Proliferation Fold Change NKL 1:10 for Q126C, SQVLKA (ligand) APTSSSTKKTQLQLSQLLVLLKAILNGINNYKNPKLTRMLTFKFYMPKKATELKHLQCLEEELKPLEEVLNLAQSKNFHLRPRDLISNINVIVLELKGSETTFMCEYADETATIVEFLNRWITFCCSIISTLT strictly below 2 fold?
stdout: condition met

stdin: Is the reported Relative Proliferation Fold Change NKL 1:10 for T3K, SQVLKA (ligand) APKSSSTKKTQLQLSQLLVLLKAILNGINNYKNPKLTRMLTFKFYMPKKATELKHLQCLEEELKPLEEVLNLAQSKNFHLRPRDLISNINVIVLELKGSETTFMCEYADETATIVEFLNRWITFCQSIISTLT strictly below 2 fold?
stdout: condition not met

stdin: Is the reported Relative Proliferation Fold Change NKL 1:10 for SQVLAA (ligand) APTSSSTKKTQLQLSQLLVLLAAILNGINNYKNPKLTRMLTFKFYMPKKATELKHLQCLEEELKPLEEVLNLAQSKNFHLRPRDLISNINVIVLELKGSETTFMCEYADETATIVEFLNRWITFCQSIISTLT strictly below 2 fold?
stdout: condition met

stdin: Is the reported Relative Proliferation Fold Change NKL 1:10 for Q74S, SQVLKA (ligand) APTSSSTKKTQLQLSQLLVLLKAILNGINNYKNPKLTRMLTFKFYMPKKATELKHLQCLEEELKPLEEVLNLASSKNFHLRPRDLISNINVIVLELKGSETTFMCEYADETATIVEFLNRWITFCQSIISTLT strictly below 2 fold?
stdout: condition not met
